endpoint_name: AC50

What AC50 appears in the records for this compound with Beta-2 adrenergic receptor (Homo sapiens, UniProt P07550)? Cc1c(C(=O)Nc2ccc(N3C[C@@H](C)O[C@@H](C)C3)nc2)cccc1-c1ccc(OC(F)(F)F)cc1
Sequence (P07550 whole entry): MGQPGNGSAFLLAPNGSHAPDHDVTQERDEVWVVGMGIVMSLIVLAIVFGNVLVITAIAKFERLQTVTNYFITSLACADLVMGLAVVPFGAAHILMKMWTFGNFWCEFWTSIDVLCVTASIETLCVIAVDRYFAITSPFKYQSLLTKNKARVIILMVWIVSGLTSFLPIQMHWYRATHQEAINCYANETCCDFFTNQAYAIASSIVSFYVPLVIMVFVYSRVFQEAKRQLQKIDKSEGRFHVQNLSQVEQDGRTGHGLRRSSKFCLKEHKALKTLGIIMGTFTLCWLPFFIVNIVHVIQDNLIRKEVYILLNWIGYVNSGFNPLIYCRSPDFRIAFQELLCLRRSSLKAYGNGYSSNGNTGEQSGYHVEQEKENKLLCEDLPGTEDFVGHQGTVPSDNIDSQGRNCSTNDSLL
> 10 µM

What AC50 appears in the records for this compound with Beta-2 adrenergic receptor (Homo sapiens, UniProt P07550)? CCC[C@@H]1C[C@@H](C(=O)N[C@@H]([C@H]2O[C@H](SC)[C@H](O)[C@@H](O)[C@H]2O)[C@H](C)Cl)N(C)C1
> 10 µM

What AC50 appears in the records for this compound with Beta-2 adrenergic receptor (Homo sapiens, UniProt P07550)? COC(=O)C1=C(C)NC(C)=C(C(=O)OC(C)C)C1c1cccc2nonc12 (stereo unspecified)
> 10 µM

What AC50 appears in the records for this compound with Beta-2 adrenergic receptor (Homo sapiens, UniProt P07550)? CC(=O)OCC(=O)[C@@]12OC3(CCCC3)O[C@@H]1C[C@H]1[C@@H]3CCC4=CC(=O)C=C[C@]4(C)[C@@]3(F)[C@@H](O)C[C@@]12C [AMCINONIDE]
> 10 µM

What AC50 appears in the records for this compound with Beta-2 adrenergic receptor (Homo sapiens, UniProt P07550)? CC(C)C(=O)OCC(=O)[C@@]12O[C@H](C3CCCCC3)O[C@@H]1C[C@H]1[C@@H]3CCC4=CC(=O)C=C[C@]4(C)[C@H]3[C@@H](O)C[C@@]12C [CICLESONIDE]
> 10 µM

What AC50 appears in the records for this compound with Beta-2 adrenergic receptor (Homo sapiens, UniProt P07550)? CCc1ccc(CCOc2ccc(CC3SC(=O)NC3=O)cc2)nc1 (stereo unspecified)
> 10 µM

What AC50 appears in the records for this compound with Beta-2 adrenergic receptor (Homo sapiens, UniProt P07550)? C[N+](C)(C)CC(=O)O
> 30 µM

What AC50 appears in the records for this compound with Beta-2 adrenergic receptor (Homo sapiens, UniProt P07550)? Nc1ncnc2c1ncn2[C@@H]1O[C@H](COP(=O)(O)O)[C@@H](O)[C@H]1O [ADENOSINE PHOSPHATE]
> 30 µM

What AC50 appears in the records for this compound with Beta-2 adrenergic receptor (Homo sapiens, UniProt P07550)? COc1c(N2CCNC(C)C2)c(F)cc2c(=O)c(C(=O)O)cn(C3CC3)c12 (stereo unspecified)
> 10 µM

What AC50 appears in the records for this compound with Beta-2 adrenergic receptor (Homo sapiens, UniProt P07550)? CCCCOc1cc(C(=O)NCCN(CC)CC)c2ccccc2n1
> 10 µM

What AC50 appears in the records for this compound with Beta-2 adrenergic receptor (Homo sapiens, UniProt P07550)? CN1C(=O)COc2c(C(=O)NC3CN4CCC3CC4)cc(Cl)cc21 (stereo unspecified)
> 30 µM

What AC50 appears in the records for this compound with Beta-2 adrenergic receptor (Homo sapiens, UniProt P07550)? O=C(O)Cc1cn(-c2ccccc2)nc1-c1ccc(Cl)cc1
> 30 µM

What AC50 appears in the records for this compound with Beta-2 adrenergic receptor (Homo sapiens, UniProt P07550)? CCCCCCCCOc1ccccc1C(=O)Nc1ccc(C(=O)OCC[N+](C)(CC)CC)cc1 [OTILONIUM BROMIDE]
11 µM

What AC50 appears in the records for this compound with Beta-2 adrenergic receptor (Homo sapiens, UniProt P07550)? Cc1ccc(-c2nc3ccc(C)cn3c2CC(=O)N(C)C)cc1
> 30 µM

What AC50 appears in the records for this compound with Beta-2 adrenergic receptor (Homo sapiens, UniProt P07550)? COc1ccc2c(c1)c(CC(=O)OCC(=O)O)c(C)n2C(=O)c1ccc(Cl)cc1
> 30 µM

What AC50 appears in the records for this compound with Beta-2 adrenergic receptor (Homo sapiens, UniProt P07550)? CN[C@@H]1[C@H](O)[C@H](NC)[C@H]2O[C@@]3(O)C(=O)C[C@@H](C)O[C@H]3O[C@@H]2[C@H]1O
> 10 µM

Source: ChEMBL document CHEMBL5291721
